# System: MCF7
# procedure.text: Induction of apoptosis in human MCF7 cells assessed as cell death at 10 uM after 24 hrs by TUNEL analysis (reference value: 9.82 +/- 2.62%)
# Assay type: functional
property.name: Activity (%)
State just the number; it will be interpreted in %.

These solved cases illustrate the format of a correct answer.
CSc1ccc(CNc2nc(SC)nc3ncccc23)cc1: 25.95
CCCCC[Se]c1nc(NCc2ccccc2)c2ccccc2n1: 30.13

For record `CC[C@@]1(O)C(=O)OCc2c1cc1n(c2=O)Cc2cc3ccccc3nc2-1` the listed Activity is 18.67

Notebook: `[SeH]c1nc([SeH])c2ccccc2n1` , Activity read as 27.29

Values compiled from ChEMBL document CHEMBL1926588.
